// data source = PubChem BioAssay AID1159580

Please provide measured normalized growth for the entries that follow.
PROTOCOL SUMMARY: chemical genetic growth profiling, strain panel (AID 1159580);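 further: tested at 20 µM; growth read once vehicle control cultures reached saturation at 30 °C; 1 = growth at the plate median or of vehicle wells; lower values mean less growth of the strain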
CONDITION DETAILS: S. cerevisiae deletion strains, growth OD, locus YFR010W, strain ubp6, active compounds read low
Among all 5,500 compounds or so, about 2,000 (36%) were called active. Inconclusive results (about 18%) are left out. This is one part of the list.
Answers are plain numbers.

The cases that follow already have their normalized growth on record.
COC(=O)[C@@H]1OC(=O)[C@H]2O[C@@]23[C@@]1(C)CCC1[C@@]2(C)CCC(=O)C(C)(C)C2C[C@@H](OC(C)=O)[C@]13C (some centres not stated) | 0.966
Cc1ccc(Cl)c(Nc2ccccc2C(=O)O)c1Cl | 0.931
O=C1OC2(c3ccc(O)cc3Oc3cc(O)ccc32)c2ccccc21 | 1.02
Cc1c(Cl)cccc1Nc1ccccc1C(=O)O | 0.876
CC(=O)Oc1c(C)cccc1C(=O)O | 1.02
CC(C)(Oc1ccc(C2CC2(Cl)Cl)cc1)C(=O)O (configuration not stated) | 0.99

Now examine the next entry.
Lookup: Fill in: normalized growth of O=c1cc[nH]c(=S)[nH]1 is ___
Found: 0.997

###

PROTOCOL SUMMARY: chemical genetic growth profiling, strain panel (AID 1159580)
CONDITION DETAILS: S. cerevisiae deletion strains, growth OD, locus YNR052C, strain pop2, active compounds read low
Hit rate of the full screen: of about 5,500 compounds, about 2,000 (36%) were called active. About 18% were inconclusive and are not listed. This is one part of the list.
Kindly state normalized growth for each of the entries shown.
Give bare numbers.

CC1(C)NC(=O)N(c2ccc([N+](=O)[O-])c(C(F)(F)F)c2)C1=O | 0.977
COc1ccc2c(c1OC)C(=O)OC2[C@H]1c2c(cc3c(c2OC)OCO3)CCN1C (stereo not given in full) | 0.978
O=C1NC(=O)C(=O)C(=O)N1 | 0.971

Could you report normalized growth for every entry in the following list?
1. Oc1ccc2c(c1)OCC1c3cc4c(cc3OC21)OCO4 (stereo not given)
2. CC1=CC2C(CC1=O)C(C)=CCC2C(C)C (stereo not given)

Found:
[0.994, 0.895]

###

PROTOCOL SUMMARY: chemical genetic growth profiling, strain panel (AID 1159580)
CONDITION DETAILS: S. cerevisiae deletion strains, growth OD, locus YJL168C, strain set2
In all, about 5,500 compounds went through this assay and about 2,000 (36%) were called active. Another 18% or so got no clear call; they are omitted. No stated cut-off is given here; in the data, active means normalized growth mostly below about 0.91 (no sharp cut-off); inconclusive means no clear call, values can overlap the other calls; inactive means mostly above about 0.92. This is one part of the list.
# output must be one of t = active, f = inactive

Solved entries:
Nc1ccn(C2O[C@H](CO)[C@@H](O)[C@@H]2O)c(=O)n1 (stereo partly drawn) | f
Nc1nc2ncc(=O)[nH]c2c(=O)[nH]1 | f
COc1cc2occ(-c3ccccc3)c(=O)c2c(OC)c1C | f
CCCCCCOc1ccccc1C(N)=O | t
CCCCOC(=O)c1ccccc1C(=O)OCc1ccccc1 | f
O=C1NC(=O)C(=O)C(=O)N1 | f

Lookup: What did this assay record as the result for NS(=O)(=O)c1cc2c(cc1Cl)NC(C(Cl)Cl)NS2(=O)=O (stereo not drawn) ?
Found: f

Lookup: Please state the recorded outcome for this compound: CCCCN(CCCC)CCCOC(=O)c1ccc(N)cc1
Found: f

###

PROTOCOL SUMMARY: chemical genetic growth profiling, strain panel (AID 1159580)
CONDITION DETAILS: S. cerevisiae deletion strains, growth OD, locus YLR342W, strain FKS1 (second series), active compounds read low
Hit rate of the full screen: of about 5,500 compounds, about 2,000 (36%) were called active. Another 18% or so got no clear call; they are omitted. Some of the results follow.
Exercise: state measured normalized growth for each of the molecules provided.
One number for each entry.

Some molecules with known normalized growth results, for comparison:
O=C(O)CN(CC(=O)O)Cc1cc2c(-c3ccccc3C(=O)O)c3cc(CN(CC(=O)O)CC(=O)O)c(=O)cc-3oc2cc1O | 1
O=S1OCC2C(CO1)C1(Cl)C(Cl)=C(Cl)C2(Cl)C1(Cl)Cl (stereo not given) | 0.872
CC1(C)O[C@@H]2CC3C4CCC5=CC(=O)CCC5(C)C4(F)C(O)CC3(C)[C@]2(C(=O)CCl)O1 (stereo not given in full) | 1.01
CC1(C)O[C@H]2[C@H](O)C[C@](O)(C(N)=O)C[C@H]2O1 | 1.03

Lookup: normalized growth for COc1cc2c(cc1OC)C1Cc3ccc(OC)c(OC)c3CN1CC2 (stereo not given) ?
Found: 0.957

###

PROTOCOL SUMMARY: chemical genetic growth profiling, strain panel (AID 1159580);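 further: tested at 20 µM; growth read once vehicle control cultures reached saturation at 30 °C; 1 = growth at the plate median or of vehicle wells; lower values mean less growth of the strain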
CONDITION DETAILS: S. cerevisiae deletion strains, growth OD, locus YPR163C, strain tif3, active compounds read low
Among all 5,500 compounds or so, about 2,000 (36%) were called active. Inconclusive results (about 18%) are left out. The list shows a part of the results.
MEASURED QUANTITY: normalized growth
Numbers only.

CC(=O)OCC(OC(C)=O)C(OC(C)=O)C(OC(C)=O)C(OC(C)=O)C(COC(C)=O)OC(C)=O (stereo unspecified) | 0.998
NS(=O)(=O)c1cc2c(cc1Cl)NC(C(Cl)Cl)NS2(=O)=O (stereo unspecified) | 1.02
C=CCCCCCCCCCCCC(O)CC(O)COC(C)=O (stereo unspecified) (tested in a mixture with another compound) | 0.898
O=C(Cn1ccnc1[N+](=O)[O-])NCCO | 1.01
C#CCCCCCCCCCCCC(O)CC(O)CO (stereo unspecified) | 0.997

Read the next record carefully.
Lookup: Recorded normalized growth of Cn1c(=O)c2[nH]cnc2n(C)c1=O , please.
Found: 0.965

###

PROTOCOL SUMMARY: chemical genetic growth profiling, strain panel (AID 1159580);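 further: tested at 20 µM; growth read once vehicle control cultures reached saturation at 30 °C; 1 = growth at the plate median or of vehicle wells; lower values mean less growth of the strain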
CONDITION DETAILS: S. cerevisiae deletion strains, growth OD, locus YOR001W, strain rrp6, active compounds read low
Screen size: about 5,500 compounds; about 2,000 (36%) were called active. Inconclusive results (about 18%) are left out. Some of the results follow.
So I've got a bunch of molecules here, and I need their normalized growth values.
Answers are plain numbers.

CC(=O)OCC[C@H](C)CCC=C(C)C | 1.02
CC(=O)N[C@@H](CS)C(=O)O | 1.02
Oc1ccc(Cl)cc1 | 0.972

Please report normalized growth for every entry that follows.
1. C#CCCCCCCCCCCCC(O)CC(O)CO (stereo not drawn)
2. C=CC(N)CCC(=O)O (stereo not drawn)
3. C=C1CCC(C2CC(=O)OC2=O)C(=O)CCC2C1CC2(C)C (stereo not drawn)
4. CCCCCCCCCCCCCCCC(=O)OC1C(SC)OC(C(NC(=O)C2CC(CCC)CN2C)C(C)Cl)C(O)C1O (stereo not drawn)
5. Cc1cccc(C)c1NC1=NCCCS1
6. O=c1cc(-c2ccccc2O)oc2cc(O)ccc12
7. Nc1ccc(N=Nc2ccccc2)c(N)n1
8. CCCCN1CCCCC1C(=O)Nc1c(C)cccc1C (stereo not drawn)

Found:
1: 0.998; 2: 0.996; 3: 0.976; 4: 0.981; 5: 1.02; 6: 0.899; 7: 0.753; 8: 0.991

###

PROTOCOL SUMMARY: chemical genetic growth profiling, strain panel (AID 1159580);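 further: tested at 20 µM; growth read once vehicle control cultures reached saturation at 30 °C; 1 = growth at the plate median or of vehicle wells; lower values mean less growth of the strain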
CONDITION DETAILS: S. cerevisiae deletion strains, growth OD, locus YJL154C, strain vps35
Hit rate of the full screen: of about 5,500 compounds, about 2,000 (36%) were called active. Not shown: some 18% with an inconclusive outcome. No stated cut-off is given here; in the data, active means normalized growth mostly below about 0.91 (no sharp cut-off); inconclusive means no clear call, values can overlap the other calls; inactive means mostly above about 0.92. The list shows a part of the results.
Returns: one label drawn from active, inactive

Reference set (3 entries):
Clc1cccc(Cl)c1NC1=NCCN1 | inactive
Cc1cc(-c2ccccc2)nnc1NCCN1CCOCC1 | inactive
C[C@H]1COC2=C1C(=O)C(=O)c1c2ccc2c1CCCC2(C)C | active

Lookup: Just curious, what result did CC1C[C@H]2CC(=O)[C@H]3CCCN4CCC[C@H]2[C@]34C1 (stereo partly specified) get here?
Found: inactive

Lookup: What call does the record list for Nc1ccc(N=Nc2ccccc2)c(N)n1 ?
Found: inactive

Lookup: For this compound, state the assay outcome: CC[C@H](C)C(=O)O[C@H]1C[C@@H](C)C=C2C=C[C@H](C)[C@H](CC[C@@H]3C[C@@H](O)CC(=O)O3)[C@H]21
Found: inactive

Lookup: Please indicate how the test categorized C[C@@H]1C(=O)OC2[C@H](O)C34[C@@H]5OC(=O)[C@@]3(O[C@@H]3OC(=O)[C@H](O)[C@@]34[C@H](C(C)(C)C)[C@H]5O)[C@]21O (stereo partly specified) .
Found: inactive

Lookup: Hi team, can someone confirm the assay call for CCCCCCCCCCCCCCCC(=O)OC1C(SC)OC(C(NC(=O)C2CC(CCC)CN2C)C(C)Cl)C(O)C1O (stereo unspecified) ?
Found: inactive

Lookup: Dear colleague, could you share the recorded outcome for N[C@@H](CC(=O)N1CCn2c(nnc2C(F)(F)F)C1)Cc1cc(F)c(F)cc1F when you have a moment?
Found: inactive

Lookup: Recorded call for COc1ccc(-c2coc3cc(OC)cc(OC)c3c2=O)cc1 ?
Found: inactive
